Biological target: Isocitrate lyase (Mycobacterium tuberculosis) (UniProt P9WKK7)
Sequence (whole entry): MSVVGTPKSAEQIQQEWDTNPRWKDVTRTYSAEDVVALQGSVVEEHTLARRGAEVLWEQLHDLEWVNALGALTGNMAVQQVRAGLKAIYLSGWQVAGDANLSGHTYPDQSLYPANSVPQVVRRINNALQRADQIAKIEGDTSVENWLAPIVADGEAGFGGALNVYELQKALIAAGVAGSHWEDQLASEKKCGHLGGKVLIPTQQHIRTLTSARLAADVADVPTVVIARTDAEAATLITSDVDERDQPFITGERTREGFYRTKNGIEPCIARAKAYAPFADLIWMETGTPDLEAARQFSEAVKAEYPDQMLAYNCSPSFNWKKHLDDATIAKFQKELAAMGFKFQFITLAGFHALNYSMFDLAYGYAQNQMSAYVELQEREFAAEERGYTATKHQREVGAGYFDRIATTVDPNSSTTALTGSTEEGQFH
Assay: Percent inhibition of Mycobacterium tuberculosis isocitrate lyase (ICL) at 10 uM
reported-endpoint: inhibition (%)
Please state the figure in %; there is no need to write the unit.

For the molecule C/C(=N\NC(=O)c1ccc([N+](=O)[O-])o1)c1ccc([N+](=O)[O-])cc1 , give its measured inhibition value.
48.9

For the molecule C/C(=N\NC(=O)c1ccc([N+](=O)[O-])o1)c1ccc(F)cc1 , give its measured inhibition value.
28.1

For the molecule O=C(N/N=C/c1ccc([N+](=O)[O-])o1)c1ccc([N+](=O)[O-])o1 , give its measured inhibition value.
86.8

For the molecule Cc1ccc(/C=N/NC(=O)c2ccc([N+](=O)[O-])o2)cc1 , give its measured inhibition value.
19.8

* * *

tested on: Mycobacterium tuberculosis; assay: Antimicrobial activity aagainst Mycobacterium tuberculosis ATCC 14468 in log phase by agar dilution method; assay type: functional
Task for the reader: assign each of the following compounds its reported MIC.
Answer by giving the amount and then stating its unit.

For the compound C/C(=N\NC(=O)c1ccc([N+](=O)[O-])o1)c1ccc(Br)cc1 , give its measured MIC value.
8.88 µM

For the compound COc1ccc(/C=N/NC(=O)c2ccc([N+](=O)[O-])o2)cc1 , give its measured MIC value.
21.6 µM

For the compound O=C(N/N=C/c1ccccc1[N+](=O)[O-])c1ccc([N+](=O)[O-])o1 , give its measured MIC value.
10.3 µM

* * *

Task for the reader: assign each of the following molecules its reported MIC.
system: Mycobacterium tuberculosis; assay: Antimicrobial activity aagainst Mycobacterium tuberculosis ATCC 14468 in log phase by agar dilution method; assay type: functional
Please state the figure in µM; there is no need to write the unit.

For the molecule CO[C@H]1/C=C/O[C@@]2(C)Oc3c(C)c(O)c4c(O)c(c(/C=N/N5CCN(C)CC5)c(O)c4c3C2=O)NC(=O)/C(C)=C\C=C\[C@H](C)[C@H](O)[C@@H](C)[C@@H](O)[C@@H](C)[C@H](OC(C)=O)[C@@H]1C [RIFAMPIN] , give its measured MIC value.
0.48

For the molecule O=C(N/N=C/c1ccco1)c1ccc([N+](=O)[O-])o1 , give its measured MIC value.
25.1

For the molecule O=C(N/N=C/c1ccc([N+](=O)[O-])o1)c1ccc([N+](=O)[O-])o1 , give its measured MIC value.
2.65

For the molecule NNC(=O)c1ccncc1 [ISONIAZID] , give its measured MIC value.
0.72

* * *

test: Cytotoxicity against african green monkey Vero cells after 72 hrs by MTT assay; type: cell-based; conditions: chlorocebus sabaeus
Task for the reader: assign each of the following compounds its reported CC50 at 72 h.

For the compound NNC(=O)c1ccncc1 , give its measured CC50 at 72 h value.
> 456 µM

For the compound C/C(=N\NC(=O)c1ccc([N+](=O)[O-])o1)c1ccc(Br)cc1 , give its measured CC50 at 72 h value.
> 178 µM

For the compound O=C(N/N=C/c1ccccc1[N+](=O)[O-])c1ccc([N+](=O)[O-])o1 , give its measured CC50 at 72 h value.
206 µM

For the compound C/C(=N\NC(=O)c1ccc([N+](=O)[O-])o1)c1ccc(C)cc1 , give its measured CC50 at 72 h value.
> 218 µM

For the compound Cc1ccc(/C=N/NC(=O)c2ccc([N+](=O)[O-])o2)cc1 , give its measured CC50 at 72 h value.
> 229 µM

For the compound O=C(N/N=C/c1ccccc1C(F)(F)F)c1ccc([N+](=O)[O-])o1 , give its measured CC50 at 72 h value.
> 191 µM

For the compound C/C(=N\NC(=O)c1ccc([N+](=O)[O-])o1)c1ccccc1 , give its measured CC50 at 72 h value.
> 229 µM

For the compound CO[C@H]1/C=C/O[C@@]2(C)Oc3c(C)c(O)c4c(O)c(c(/C=N/N5CCN(C)CC5)c(O)c4c3C2=O)NC(=O)/C(C)=C\C=C\[C@H](C)[C@H](O)[C@@H](C)[C@@H](O)[C@@H](C)[C@H](OC(C)=O)[C@@H]1C , give its measured CC50 at 72 h value.
> 75.9 µM

For the compound O=C(N/N=C/c1ccc([N+](=O)[O-])o1)c1ccc([N+](=O)[O-])o1 , give its measured CC50 at 72 h value.
213 µM

For the compound C/C(=N\NC(=O)c1ccc([N+](=O)[O-])o1)c1ccc([N+](=O)[O-])cc1 , give its measured CC50 at 72 h value.
> 197 µM

For the compound C/C(=N\NC(=O)c1ccc([N+](=O)[O-])o1)c1ccc(F)cc1 , give its measured CC50 at 72 h value.
215 µM

* * *

Task for the reader: assign each of the following compounds its reported inhibition.
target: Isocitrate lyase (Mycobacterium tuberculosis) (UniProt P9WKK7); assay: Percent inhibition of Mycobacterium tuberculosis isocitrate lyase (ICL) at 10 uM
Please state the figure in %; there is no need to write the unit.

For the compound C/C(=N\NC(=O)c1ccc([N+](=O)[O-])o1)c1ccc(C)cc1 , give its measured inhibition value.
32.5

For the compound O=C(N/N=C/c1ccccc1C(F)(F)F)c1ccc([N+](=O)[O-])o1 , give its measured inhibition value.
30.1

For the compound C/C(=N\NC(=O)c1ccc([N+](=O)[O-])o1)c1ccccc1 , give its measured inhibition value.
34.9

For the compound O=C(N/N=C/c1ccccc1[N+](=O)[O-])c1ccc([N+](=O)[O-])o1 , give its measured inhibition value.
46.8

For the compound C/C(=N\NC(=O)c1ccc([N+](=O)[O-])o1)c1ccc(Br)cc1 , give its measured inhibition value.
73.1
